- Test system: SK-OV-3
- Test method notes: NCI tumour cell line growth inhibition, 48 h
Calls of active or inactive are those of the source. Cut-off read from the data, not from the text of the source: active = GI50 up to about 1.1 µM and inactive = higher.
Endpoint label: GI50

> print(dat)
                                    molecule                value
 1  O=C1N/C(=N/N=C\C(O)C(O)C(O)CO)N/C1=C/c1ccccc1 (stereo unspecified)  > 100 µM (inactive)
 2  CC(=O)Nc1ccc(-c2nnc(SCC(=O)Nc3ccccc3[N+](=O)[O-])o2)cc1  > 100 µM (inactive)
 3  CC1C=CC(C)C2(O)C(=O)NC(O)C12 (stereo unspecified)  > 100 µM (inactive)
 4             CCOC(=O)c1csc(NC(=O)CN(C)C)n1  > 100 µM (inactive)
 5  O=C1N[C@@H](c2c[nH]c3ccc(Br)cc23)C(=O)N[C@H]1c1c[nH]c2ccc(Br)cc12   15.9 µM (inactive)
 6  CCCCn1c(C)c2c(c1C)C(=O)N(CC(O)CN1CCc3ccccc3C1)C2=O (stereo unspecified)  > 100 µM (inactive)
 7                 CC(C)OC(=O)c1cccnc1/C=N/O  > 100 µM (inactive)
 8             O=C(NC1CCCCC1)c1cc2ccccc2cc1O   49.1 µM (inactive)
 9        NS(=O)(=O)c1ccc(/N=N/c2ncccc2O)cc1  > 100 µM (inactive)
10                    CC(C)(C)OC[C@H](O)CC#N  > 100 µM (inactive)
11  CCCCCCCCCCCCCCCCCCN(C)CC(COC)OP(=O)([O-])OCC[N+](C)(C)C (stereo unspecified)   11.2 µM (inactive)

====

- System: MDA-N
- Test method notes: NCI tumour cell line growth inhibition, 48 h
Activity calls are given as the source filed them. Rule as the data show it: active = GI50 up to about 1.1 µM and inactive = higher.
Outcome codes: label 1 = active, label 0 = inactive

> print(dat)
                                    compound  subject.of.test  class.assignment
 1  COC(=O)CCC(=O)c1ccc2c(c1)CC1(C2)Cc2ccc3c(c2C1)CCCC3=O (stereo not given)            MDA-N           label 0
 2  CCCCCCCC/C=C\CCCCCCC/C=C1\C[C@](/C=C/C(=O)OC)(CO)OC1=O            MDA-N           label 1
 3         CC(=O)Nc1ccc2nc(N)n[n+]([O-])c2c1            MDA-N           label 0
 4  O=C1N/C(=N/N=C\C(O)C(O)C(O)CO)N/C1=C/c1ccccc1 (stereo not given)            MDA-N           label 0
 5           O=C1c2ccccc2C(=O)N1CCCSc1ccccc1            MDA-N           label 0
 6  CN(Cc1cc(Cl)cc(Cl)c1O)Cc1c(O)ccc2ccccc12            MDA-N           label 0
 7  CCOC(=O)CCC(NC(=O)Cc1ccc(Nc2nc3ccccc3nc2-c2cccs2)cc1)C(=O)OCC (stereo not given)            MDA-N           label 0
 8  C#CCN(Cc1ccc2[nH]c(N)nc(=O)c2c1)c1ccc(C(=O)NC(CCC(=O)O)C(=O)O)cc1 (stereo not given)            MDA-N           label 0
 9  Cc1ccc(S[C@@H](C)[C@@](O)(CF)CN(Cc2ccccc2)C(=O)C(F)(F)F)cc1            MDA-N           label 0
10                      COC(=O)c1nsc(OC)c1Cl            MDA-N           label 0
